# subject.of.test: hα7-wt nAChR-expressing GH4Cl cells (Homo sapiens)
# Construct: expressed in transfected cells
# Sequence (P36544 23-502): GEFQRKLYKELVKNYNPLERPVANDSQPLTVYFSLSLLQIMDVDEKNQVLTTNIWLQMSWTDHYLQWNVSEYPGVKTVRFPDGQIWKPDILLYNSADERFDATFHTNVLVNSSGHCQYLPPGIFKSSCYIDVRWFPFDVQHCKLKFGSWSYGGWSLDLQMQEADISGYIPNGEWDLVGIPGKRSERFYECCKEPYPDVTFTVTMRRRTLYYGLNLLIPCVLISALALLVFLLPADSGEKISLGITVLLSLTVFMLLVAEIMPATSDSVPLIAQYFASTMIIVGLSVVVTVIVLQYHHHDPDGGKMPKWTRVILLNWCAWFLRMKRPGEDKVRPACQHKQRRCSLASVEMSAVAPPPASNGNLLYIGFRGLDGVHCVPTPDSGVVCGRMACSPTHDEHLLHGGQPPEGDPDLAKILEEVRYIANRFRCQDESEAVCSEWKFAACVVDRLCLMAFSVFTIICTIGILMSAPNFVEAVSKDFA
# assay.summary: Patch-clamp current recording (whole-cell), potentiation of choline 1 mM response, PAM type
# Type: cell-based
# Parameters: key: Type 0 compounds minimally enhance the effect size of the current elicited by 1 mM choline.; Type 1 compounds enhance the effect size of the current elicited by 1 mM choline but minimally alter the kinetics of the receptor.; Type 2 compounds enhance the effect size of the current elicited by 1 mM choline while reducing the rate and/or the extent of desensitization.; Type 3 compounds enhance the effect size of the current elicited by 1 mM choline. When tested at higher concentrations up to 10 μM they completely inhibit desensitization, in particular a 1 mM choline application of 250 milliseconds.; Type 4 compounds allow for an initial desensitization of the receptor followed by a re-opening of the receptor during agonist application
# condition.info: patch-clamp current recording, 1 mM choline
# Pam type values compiled below
parameter: Pam type

INSERT INTO results (compound, parameter, data_value) VALUES
  ('Cc1cc(-n2nc(Nc3ccc(F)c(F)c3)nc2CC(=O)NC2CCC2)cc(C)n1', 'Pam type', 2),
  ('Cc1ccc(-n2nc(Nc3cccc(OC(F)(F)F)c3)nc2CCC(=O)N(C)C)cn1', 'Pam type', 4),
  ('Cc1cc(-n2nc(Nc3ccc(F)c(C(F)(F)F)c3)nc2CC(=O)NC2CCC2)cc(C)n1', 'Pam type', 0),
  ('Cc1cc(-n2nc(Nc3ccc(F)c(C(F)(F)F)c3)nc2CC(C)O)ccn1 (stereo not drawn)', 'Pam type', 2),
  ('Cc1cc(-n2nc(Nc3ccc(F)c(F)c3F)nc2CC(=O)NC2CC2)cc(C)n1', 'Pam type', 2),
  ('Cc1ccc(-n2nc(Nc3ccc4c(c3)OC(F)(F)O4)nc2CCC(=O)N(C)C)cn1', 'Pam type', 4),
  ('CNC(=O)CCc1nc(Nc2ccc(F)c(F)c2)nn1-c1ccc2c(c1)OCCO2 [E2]', 'Pam type', 3),
  ('COc1cc(Cl)cc(Nc2nc(CC(=O)NC3CC3)n(-c3cc(C)nc(C)c3)n2)c1', 'Pam type', 4),
  ('COc1ccc(-n2nc(Nc3ccc4c(c3)OC(F)(F)O4)nc2CCC(=O)N(C)C)cc1', 'Pam type', 4);

---

parameter: melting point (°C)

INSERT INTO assay_data (compound, data_value) VALUES
  ('Cc1cc(-n2nc(Nc3cc(F)cc(F)c3)nc2CC(=O)NC2CC2)cc(C)n1', 289.2),
  ('Cc1cc(-n2nc(Nc3cccc(Cl)c3F)nc2CC(=O)NC2CC2)cc(C)n1', 248.8),
  ('CCNC(=O)Cc1nc(Nc2cc(F)cc(C(F)(F)F)c2)nn1-c1cc(C)nc(C)c1', 284.5),
  ('CNC(=O)Cc1nc(Nc2cc(OC)cc(C(F)(F)F)c2)nn1-c1cc(C)nc(C)c1', 284.6),
  ('Cc1cc(-n2nc(Nc3ccc(F)c(F)c3F)nc2CC(=O)NC(C)C)cc(C)n1', 252.1),
  ('COc1ccc(-n2nc(Nc3ccc(F)c(C(F)(F)F)c3)nc2C[C@H](C)O)cc1', 188.7),
  ('CC[C@H](O)Cc1nc(Nc2cccc(Cl)c2)nn1-c1ccc(C)nc1', 110.4),
  ('COc1ccc(Nc2nc(CC(=O)NC3CCC3)n(-c3cc(C)nc(C)c3)n2)cc1C(F)(F)F', 268.7),
  ('Cc1cc(-n2nc(Nc3cccc(Cl)c3F)nc2CC(=O)NC2CC2)c(C)cn1', 192.6),
  ('Cc1cc(-n2nc(Nc3cccc(OC(F)(F)F)c3)nc2CC(=O)NC2CC2)cc(C)n1', 282.2),
  ('Cc1cc(-n2nc(Nc3ccc(F)c(F)c3F)nc2C[C@H](C)O)ccn1', 131.4),
  ('Cc1cc(-n2nc(Nc3cccc(C(F)(F)F)c3)nc2CC(=O)NCC2CC2)cc(C)n1', 260.9),
  ('Cc1cc(-n2nc(Nc3ccc(F)c(C(F)(F)F)c3)nc2C[C@@H](C)O)cc(C)n1', 224.4),
  ('Cc1cc(-n2nc(Nc3ccc(F)c(C(F)(F)F)c3)nc2C(C)CO)ccn1 (stereo not drawn)', 181.9),
  ('Cc1cc(-n2nc(Nc3ccc(F)c(C(F)(F)F)c3)nc2CC(=O)NC2CCC2)cc(C)n1', 248.8),
  ('Cc1cc(-n2nc(Nc3ccc(F)c(C(F)(F)F)c3)nc2CCCF)ccn1', 191.5),
  ('CCc1cc(-n2nc(Nc3ccc(F)c(F)c3)nc2C[C@@H](O)CC)ccn1', 169.4),
  ('Cc1cc(-n2nc(Nc3ccc(F)c(F)c3F)nc2CC(=O)NC2CCC2)cc(C)n1', 249.4);
